Test method notes: Evaluation of pharmacokinetic parameters for Anastrazole following single oral administration of Anastrazole to subjects under fatsed and fed conditions.
Assay conditions: human, in vivo

Chemical smiles	half-life (h)
CC(C)(C#N)c1cc(Cn2cncn2)cc(C(C)(C)C#N)c1	50
